Recorded values, source paper PMC10170137.

substrate: NC(=O)C1=CN([C@@H]2O[C@H](COP(=O)(O)OP(=O)(O)OC[C@H]3O[C@@H](n4cnc5c(N)ncnc54)[C@H](OP(=O)(O)O)[C@@H]3O)[C@@H](O)[C@H]2O)C=CC1; test: Nash assay of formaldehyde, fluorescence; coupled to EcAckA; format: biochemical, Denitrovibrio acetiphilus; details: formyl phosphate made in situ by 10 µM EcAckA from 500 mM ammonium formate and 5 mM ATP, 10 mM MgCl2, MOPS-KOH pH 7.0, 30 °C, varied: cofactor
outcomeMeasure: kcat/Km (M⁻¹ s⁻¹)
One number for each entry, in M⁻¹ s⁻¹.

Enquiry: Please give measured kcat/Km of the following entry: DaArgC (Denitrovibrio acetiphilus DSM 12809; G182V) (protein, dimer) MKVSVIGATGYTGYELVKILANHPEFEIAALVSETYADKMFSDVYPRLRSICDVVITGRDYDAVAEISDAVFLCLPHAAAQDAAAFFYEKGLKVVDFSADFRLKDKKLYEATYKVDHTYPDLLRKAVYGLPEIFEVDIKKAELVANPGCYPTSVITPLYPLLKAGLISPEGIIADSKSGVTVAGRKADIAYSFCECNEDFRPYAIFSHRHNPEINEVLKETGKETNVLFTPHLIPASKGIESTIYTKTTAGLAEISACLKDFYRERRCVRIYDNGHIPSTADVTDTNFIDIGLFVKGERLIIVSCIDNLIKGSSGMAVQNMNLMCGFDDTLGIL
Return: 3500
